biological target: human monomeric IgG (Research Diagnostics); test: RF test kit: peptide pre-incubated with human monomeric IgG, washed, then RF; competitor: RF
Positions of bridges follow the written chain, without caps; N, C: chain ends. No end group written: not given here.
Binary label based on OD 405 nm with cut-off 1 OD: below gives met, not below gives not met.

binder: DCAAHLGELAACT (cyclized by a disulfide bond between the two cysteine residues) [… (SEQ ID NO:40)]
answerLabel: not met
--
binder: DCAFHLGELVWCT (cyclized by a disulfide bond between the two cysteine residues) [… (SEQ ID NO:3)]
answerLabel: met
--
binder: RCARHLGELVWCT (disulfide 2-12 (inferred)) [… (SEQ ID NO:5)]
answerLabel: not met
--
binder: PCARHLGELVWCT (disulfide 2-12 (inferred)) [… (SEQ ID NO:41)]
answerLabel: not met
--
binder: DCARHLGELVWCT (disulfide 2-12 (inferred)) [… (SEQ ID NO:4)]
answerLabel: not met
--
binder: DCAWHLGELAACT (cyclized by a disulfide bond between the two cysteine residues) [… (SEQ ID NO:42)]
answerLabel: not met

Sourced from patent US20070225231A1
